All values here come from paper PMC9482650.

target: Inadl_9, Q8NI35; experiment: holdup assay; set-up: key: below the threshold = too weak to quantify, mostly under pKd 3.1 to 4; conditions: plain residues with an end cap or a label only (N-terminal biotin on a linker: ttds)
Sequence (Q8NI35 1530-1615): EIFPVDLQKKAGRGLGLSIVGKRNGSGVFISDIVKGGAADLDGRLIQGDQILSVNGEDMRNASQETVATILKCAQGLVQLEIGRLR
Catalogue of binders with associated pKd
Keep the answer to the number alone.

Guide cases for pKd, answers given:
Query :: Requested field: pKd. Item: PFRSRSPSEV [GPR6, P46095]
Result :: 3.47

Query :: Requested field: pKd. Item: KLVIKTETTV [RASSF6, Q6ZTQ3]
Result :: 3.54

Query :: Requested field: pKd. Item: NPDALPETLV [ARHGAP6, O43182]
Result :: 3.98

More entries:
Query :: Requested field: pKd. Item: KQVVPFSSSV [GDA, Q9Y2T3]
Result :: 3.52

Query :: Requested field: pKd. Item: SGGKRKETLV [NET1, Q7Z628]
Result :: 3.66

Query :: Requested field: pKd. Item: FVETQHQTQV [FAT3, Q8TDW7]
Result :: 3.61

Query :: Requested field: pKd. Item: SSIDLWETAL [SLC15A5, A6NIM6]
Result :: 3.7
